- EXPERIMENTAL_CONDITIONS: in acetonitrile, 298.15 K
EXPERIMENTAL_READOUT: solubility (mole fraction)

Give the measured solubility (mole fraction) of `Cc1ccc(Nc2nccc(N(C)c3ccc4c(C)n(C)nc4c3)n2)cc1S(N)(=O)=O` .
5.16e-06

---

- EXPERIMENTAL_CONDITIONS: in acetonitrile, 293.15 K
EXPERIMENTAL_READOUT: solubility (mole fraction)
Reply with just the number.

GET /values?readout=solubility (mole fraction)&item= `Cc1ccc(Nc2nccc(N(C)c3ccc4c(C)n(C)nc4c3)n2)cc1S(N)(=O)=O`
3.07e-06

---

- EXPERIMENTAL_CONDITIONS: in n-butanol, 303.15 K
EXPERIMENTAL_READOUT: solubility (mole fraction)
// response body must contain only the number

Fill in: solubility (mole fraction) of `Cc1ccc(Nc2nccc(N(C)c3ccc4c(C)n(C)nc4c3)n2)cc1S(N)(=O)=O` is ___
2.34e-05
